assayed_target: hMOR (Homo sapiens, UniProt P35372)
Sequence (P35372 whole entry): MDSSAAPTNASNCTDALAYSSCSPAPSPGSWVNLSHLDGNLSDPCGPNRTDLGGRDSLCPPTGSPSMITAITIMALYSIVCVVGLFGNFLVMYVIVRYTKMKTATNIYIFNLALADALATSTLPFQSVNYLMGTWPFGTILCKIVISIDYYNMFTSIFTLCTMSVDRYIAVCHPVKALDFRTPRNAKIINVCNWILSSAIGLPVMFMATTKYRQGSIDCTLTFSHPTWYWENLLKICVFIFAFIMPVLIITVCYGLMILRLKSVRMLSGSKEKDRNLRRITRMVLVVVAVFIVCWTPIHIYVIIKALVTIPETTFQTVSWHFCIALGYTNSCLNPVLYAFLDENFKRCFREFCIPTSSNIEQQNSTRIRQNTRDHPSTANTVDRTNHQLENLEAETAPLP
protocol_summary: Radioligand binding assay (Eurofins Cerep), [3H]DAMGO displacement
assay_context: Table 3-3; 3 independent experiments; read-out: Ki (nM ± SEM) MOR
readout_name: Ki

Here's what some known entries look like.
COC(=O)CC1CCN(CCc2c[nH]c3c(OC)cccc23)CC1    > 10000 nM
COC(=O)CC1CCN(CCc2cn(CCc3c[nH]c4ccccc34)c3ccccc23)CC1    9280 nM
COC(=O)CC1CCN(CCc2c[nH]c3ccccc23)CC1 [Compound 3-43]    8910 nM

# Ki of COC(=O)CC1CCN(CCc2cn(CC(F)(F)F)c3ccccc23)CC1 = 1480 nM

# Ki of COC(=O)CC1CCN(CCc2c[nH]c3ccccc23)CC1 [Compound 3-24] = 2230 nM

# Ki of COC(=O)CC1CCN(CCc2c[nH]c3cccc(OC)c23)CC1 = > 10000 nM

# Ki of COC(=O)CC1CCN(CC(=O)N2CCc3c(OC)cccc32)CC1 = > 10000 nM

meta.source: patent US20260234147A1
